tested-on: Metabotropic glutamate receptor 5 (Homo sapiens)
Sequence (P41594 21-1212 limits assumed): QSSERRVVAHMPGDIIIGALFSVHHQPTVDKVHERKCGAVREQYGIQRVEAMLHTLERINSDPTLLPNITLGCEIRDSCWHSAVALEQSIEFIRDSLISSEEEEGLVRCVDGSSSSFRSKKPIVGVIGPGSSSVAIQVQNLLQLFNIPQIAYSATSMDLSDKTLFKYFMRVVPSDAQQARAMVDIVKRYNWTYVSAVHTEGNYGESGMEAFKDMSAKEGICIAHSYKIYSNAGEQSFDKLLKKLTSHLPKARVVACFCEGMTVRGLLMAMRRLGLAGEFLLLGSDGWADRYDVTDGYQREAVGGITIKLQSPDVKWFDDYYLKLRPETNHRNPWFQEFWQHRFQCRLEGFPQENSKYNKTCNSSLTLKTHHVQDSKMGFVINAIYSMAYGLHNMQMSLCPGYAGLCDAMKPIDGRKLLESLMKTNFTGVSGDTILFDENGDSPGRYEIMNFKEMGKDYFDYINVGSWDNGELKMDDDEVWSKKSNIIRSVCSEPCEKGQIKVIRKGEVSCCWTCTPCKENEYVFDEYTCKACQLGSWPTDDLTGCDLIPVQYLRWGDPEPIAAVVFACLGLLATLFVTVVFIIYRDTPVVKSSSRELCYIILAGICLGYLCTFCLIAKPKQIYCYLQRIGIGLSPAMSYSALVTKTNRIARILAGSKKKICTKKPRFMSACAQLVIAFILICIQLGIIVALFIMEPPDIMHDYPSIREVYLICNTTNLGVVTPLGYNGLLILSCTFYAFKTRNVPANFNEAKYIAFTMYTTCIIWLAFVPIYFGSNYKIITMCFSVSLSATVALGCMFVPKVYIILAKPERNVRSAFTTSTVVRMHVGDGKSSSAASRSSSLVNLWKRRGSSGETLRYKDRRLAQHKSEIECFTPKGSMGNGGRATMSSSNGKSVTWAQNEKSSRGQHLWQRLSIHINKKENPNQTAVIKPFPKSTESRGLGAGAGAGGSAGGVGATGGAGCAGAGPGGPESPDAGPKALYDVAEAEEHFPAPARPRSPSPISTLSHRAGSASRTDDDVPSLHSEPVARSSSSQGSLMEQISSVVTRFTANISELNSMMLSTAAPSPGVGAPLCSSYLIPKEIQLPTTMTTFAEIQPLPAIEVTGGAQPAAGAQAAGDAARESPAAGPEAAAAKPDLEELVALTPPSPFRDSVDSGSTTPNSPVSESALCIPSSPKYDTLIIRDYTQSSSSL
measurement-description: Displacement of [3H]M-MPEP from mGluR5 (unknown origin) at 1 uM measured after 60 mins relative to control
Label rule, in plain words: inhibition of 90% and up is True, under 90% is False.

### Prompt Textbook exercise: given the entry O=S(=O)(c1ccccc1)c1cnc2c(F)cccc2c1N1CCOCC1 , state whether its inhibition is greater than or equal to 90%.
### Response False

### Prompt Textbook exercise: given the entry COc1ccc(S(=O)(=O)c2cnc3cc(Cl)ccc3c2N2CCOCC2)cc1OC , state whether its inhibition is greater than or equal to 90%.
### Response False

### Prompt Textbook exercise: given the entry Cc1ccc2ncc(S(=O)(=O)c3ccc(Cl)c(Cl)c3)c(N3CCOCC3)c2c1 , state whether its inhibition is greater than or equal to 90%.
### Response False

### Prompt Textbook exercise: given the entry COc1ccc2ncc(S(=O)(=O)c3ccc(OC)c(Cl)c3)c(N3CCOCC3)c2c1 , state whether its inhibition is greater than or equal to 90%.
### Response False

### Prompt Textbook exercise: given the entry Cc1ccc(S(=O)(=O)c2cnc3c(F)cccc3c2N2CCC(C)CC2)cc1 , state whether its inhibition is greater than or equal to 90%.
### Response True

### Prompt Textbook exercise: given the entry Cc1ccc2ncc(S(=O)(=O)c3ccc(C)c(F)c3)c(N3CCOCC3)c2c1 , state whether its inhibition is greater than or equal to 90%.
### Response False

### Prompt Textbook exercise: given the entry O=S(=O)(c1ccc(Cl)cc1)c1cnc2cc(F)ccc2c1N1CCOCC1 , state whether its inhibition is greater than or equal to 90%.
### Response False

### Prompt Textbook exercise: given the entry CCN1CCN(c2c(S(=O)(=O)c3ccccc3)cnc3ccccc23)CC1 , state whether its inhibition is greater than or equal to 90%.
### Response False

### Prompt Textbook exercise: given the entry CCOC(=O)C1CCN(c2c(S(=O)(=O)c3ccccc3)cnc3ccccc23)CC1 , state whether its inhibition is greater than or equal to 90%.
### Response False

### Prompt Textbook exercise: given the entry Cc1ccc2ncc(S(=O)(=O)c3ccc(F)c(Cl)c3)c(N3CCC(C)CC3)c2c1 , state whether its inhibition is greater than or equal to 90%.
### Response True

### Prompt Textbook exercise: given the entry CC1CCN(c2c(S(=O)(=O)c3ccccc3)cnc3cc(Cl)ccc23)CC1 , state whether its inhibition is greater than or equal to 90%.
### Response True

### Prompt Textbook exercise: given the entry CC1CCN(c2c(S(=O)(=O)c3cc(Cl)cc(Cl)c3)cnc3cc(F)ccc23)CC1 , state whether its inhibition is greater than or equal to 90%.
### Response False

### Prompt Textbook exercise: given the entry O=S(=O)(c1cccc(F)c1)c1cnc2cc(F)ccc2c1N1CCSCC1 , state whether its inhibition is greater than or equal to 90%.
### Response False

### Prompt Textbook exercise: given the entry COc1ccc2ncc(S(=O)(=O)c3ccc(OC)c(OC)c3)c(N3CCOCC3)c2c1 , state whether its inhibition is greater than or equal to 90%.
### Response False

### Prompt Textbook exercise: given the entry Cc1ccc(S(=O)(=O)c2cnc3cc(Cl)ccc3c2N2CCC(C)CC2)cc1 , state whether its inhibition is greater than or equal to 90%.
### Response True

### Prompt Textbook exercise: given the entry Cc1cc(C)cc(S(=O)(=O)c2cnc3ccc(Cl)cc3c2N2CCC(C)CC2)c1 , state whether its inhibition is greater than or equal to 90%.
### Response False

### Prompt Textbook exercise: given the entry O=S(=O)(c1ccc(F)c(F)c1)c1cnc2ccc(Cl)cc2c1N1CCOCC1 , state whether its inhibition is greater than or equal to 90%.
### Response False

### Prompt Textbook exercise: given the entry O=S(=O)(c1ccc(F)cc1)c1cnc2cc(F)ccc2c1N1CCSCC1 , state whether its inhibition is greater than or equal to 90%.
### Response False

### Prompt Textbook exercise: given the entry COc1ccc(S(=O)(=O)c2cnc3cc(Cl)ccc3c2N2CCC(C)CC2)cc1Cl , state whether its inhibition is greater than or equal to 90%.
### Response True

### Prompt Textbook exercise: given the entry Cc1ccc(S(=O)(=O)c2cnc3cc(Cl)ccc3c2N2CCOCC2)cc1Cl , state whether its inhibition is greater than or equal to 90%.
### Response False
